# System: PPARg:RXRa (NR concentration 180 nM, RXRa partner concentration 90 nM)
# assay: PBM binding z-score (relative to random genomic background probes); higher = stronger binding; sequences stand for … in GC…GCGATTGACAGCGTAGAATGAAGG
metric_name: PBM binding z-score
# print the numeric value only

Fill in the recorded PBM binding z-score for this sequence, with PPARg:RXRa (NR concentration 180 nM, RXRa partner concentration 90 nM) as test system: "ATACCAAGGTGATCGTGAGGTCGTGGATACTAAC"
0.846

API: value(readout= PBM binding z-score, system= PPARg:RXRa (NR concentration 180 nM, RXRa partner concentration 90 nM), query= "TGAATGAGGTTATAAGATCAGGGAGCGTTGCAAA" )
1.63

# returns recorded PBM binding z-score (system: PPARg:RXRa (NR concentration 180 nM, RXRa partner concentration 90 nM)) for "CCTAGCAGGCCAGTCTGGGTCACTCAAGGCTTGA"
-0.179

Look up PBM binding z-score with PPARg:RXRa (NR concentration 180 nM, RXRa partner concentration 90 nM) for this sequence: "TCATGTAGGTAATACAGGTGAAAGTCGGCATCTA"
1.15

What is its PBM binding z-score for PPARg:RXRa (NR concentration 180 nM, RXRa partner concentration 90 nM)? Entry: "CATACAGGGCCAGCTAGGCCAGAGTAGGGACGGC"
0.311

Return PBM binding z-score measured with PPARg:RXRa (NR concentration 180 nM, RXRa partner concentration 90 nM) given this sequence: "GCTAGGTGGTCAGTAAAAGGTCACACACCGGTCG"
2.78

###

Please go through the items and note down their PBM binding z-score.
# Tested on: RARb:RXRa (NR concentration 270 nM, RXRa partner concentration 90 nM)
# assay: PBM binding z-score (relative to random genomic background probes); higher = stronger binding; sequences stand for … in GC…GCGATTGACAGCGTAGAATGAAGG

Notebook: pull reported PBM binding z-score for RARb:RXRa (NR concentration 270 nM, RXRa partner concentration 90 nM), entry "TGAATTAGGTTATAAGATCAGGGAACGTTGCAAA"
0.576

Identify the measured PBM binding z-score of "ATATGTAGGCTAGCTGGGGTCATTCAGACTAGGC" for RARb:RXRa (NR concentration 270 nM, RXRa partner concentration 90 nM).
2.28

What PBM binding z-score appears in the records for this sequence with RARb:RXRa (NR concentration 270 nM, RXRa partner concentration 90 nM)? "ACTATTAGTTGAGACGAGGGCAACCCATAGGTTG"
1.07

Could you share what PBM binding z-score was measured for "CCTGCTTGGTCATGGTCAGCTAATCTACAGTATG" , tested on RARb:RXRa (NR concentration 270 nM, RXRa partner concentration 90 nM)?
1.24

Notebook entry, RARb:RXRa (NR concentration 270 nM, RXRa partner concentration 90 nM) assay: PBM binding z-score of "ATACCAAGGTGATCGTAAGGTCGTTGATACTAAC" = ?
1.55

Lab note: need PBM binding z-score for "CAAACTAGGTCACGTAAGGTCAAAGTCGAATGAC" on RARb:RXRa (NR concentration 270 nM, RXRa partner concentration 90 nM), anyone have it?
5.38

###

Give measured PBM binding z-score for each item. Keep answers brief.
# System: RXRa homodimer (NR concentration 180 nM)
# assay: PBM binding z-score (relative to random genomic background probes); higher = stronger binding; sequences stand for … in GC…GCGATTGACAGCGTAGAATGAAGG
Please give only the number in your answer, with no unit.

Give the measured PBM binding z-score of "GCATATAGGTAATACAATGTGAAAGTCCGATTGT" .
0.305

For the sequence shown here, "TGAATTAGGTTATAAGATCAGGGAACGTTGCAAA" , give the reported PBM binding z-score.
0.503

Given the sequence "GGAATGAGGGCAAGTTGATAGCAGAGTTTGATGG" , what is its reported PBM binding z-score?
1.04

Entry "ATATGTAGGTTAGCTGGGGTCATACAGACTAGGC" has what PBM binding z-score?
6.14

Which PBM binding z-score is reported for this sequence? "CAAACTAGGTCACGAAAGCTCAAAGTCGAATGAC"
3.99

###

# Tested on: THRa homodimer (NR concentration 90 nM)
# assay: PBM binding z-score (relative to random genomic background probes); higher = stronger binding; sequences stand for … in GC…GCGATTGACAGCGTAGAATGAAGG
Threshold check on PBM binding z-score: at or above 0.2 gives y, strictly below gives n.

Could you tell me if the measured PBM binding z-score of "ATATGTAGGTTATCGGGTCATTGAGTTTGCGCAT" reaches 0.2 or more?
y

Check if PBM binding z-score >= 0.2 (inclusive). Item: "TCTCGGAGGGCACGAAAGGTCAGAGCTCGACATC"
n

Assess whether reported PBM binding z-score for "CTACCAAGGTTAACAAGGTCGTTGATTACTATTC" sits at 0.2 or higher.
y

hey, is PBM binding z-score for this one >= 0.2? "CCTACTGGGCCATTCAGAGGTCGTTGATCATATG"
y

Hi, just wondering whether "CCTTACGGGTCACGAGGATATAGCACGACGAGCG" shows PBM binding z-score of 0.2 or higher.
y

Quick check: does "TCTAGCAGGCCAGAGGGTCACTCGAGAGGTACGG" have PBM binding z-score greater than or equal to 0.2?
n

Entry "AATACAGGGTCACTAGGCCAGAGTCGGTACGAAT" : is its PBM binding z-score no less than 0.2?
y

Can "TGAATGAGGTTATAAGATCAGGGGACGTTGCAAA" be said to have PBM binding z-score at or above 0.2?
y

Please indicate if the recorded PBM binding z-score for "TCATATAGGTAAACAGCTGAAAGTCCGTAAGTTA" meets or exceeds 0.2.
n

Check the entry "CCTGCTAGGTCATGGTTAGCTAATCTACAGTATG" : does PBM binding z-score equal or exceed 0.2?
y

Has "ATACCAAGGAGATCGTGAGGTCGTTGATACTAAC" a recorded PBM binding z-score greater than or equal to 0.2?
y

Quick check: does "ATCTCTAGGTAAAGATCGTTCAGTGAATGCAAAT" have PBM binding z-score greater than or equal to 0.2?
n

// inclusive: PBM binding z-score at least 0.2? input: "TCATATAGGTAAACAGATGAAAGTCCGTAAGTTA"
n

Is PBM binding z-score for "ATCTGTAGGTAAAAGTTCAGTGAATCCCGAGGAT" at or above 0.2?
n

Given the entry "TCATATAGATAATACAGGTGAAAGTCGGCATCTA" , answer whether its PBM binding z-score meets or surpasses 0.2.
y

API: above_or_equal(metric=PBM binding z-score, cutoff=0.2) for item "TCTGCTAGGTCAACGATGTTCAGCTAATCTGCTA"
y

Reported PBM binding z-score reaches at least 0.2 for "CATGCTAGGTCAATGGTCAGCTAAAGCAGCTCGC" ?
y

State whether the measured PBM binding z-score reaches 0.2, counting equality as reaching it, for "CCTCAGAGGACAGAAGGTCAGAGCTGTCCGCTTT"
n

Does the reported PBM binding z-score for "ACTAGCAGGCCATGGGTCACTCAAGATTAGTCCG" fall at or above the 0.2 mark?
n

Please indicate if the recorded PBM binding z-score for "CGTCCAAGGTCAATGCTAGGTCAGTGACAGCATT" meets or exceeds 0.2.
y

Determine whether this sequence has PBM binding z-score no lower than 0.2: "TCATATAGGTAAAGGTGATAGTCGAACGATATGA"
n

Is the recorded value of PBM binding z-score equal to or greater than 0.2 for this sequence? "CGTCCTAGGTCAGCAGGTCAGTGAAAGCGACGTG"
y

In plain terms: is recorded PBM binding z-score at least 0.2 for "ACTGGCAGGCCAAGGGTCACTCAAGATTAGTCCG" ?
n

State whether the measured PBM binding z-score reaches 0.2, counting equality as reaching it, for "ACGAGCAGGCCAAGGGTCACTCAAGATTAGTCCG"
y

For this sequence, is measured PBM binding z-score 0.2 or higher? "CCGAGTAGGTTACGGGGCATTCAGGCAACGGTGA"
n

PBM binding z-score >= 0.2 for "ACTCGGAGGACAAAGATCAGAGCTACGCCAGTGA" ?
n

###

# Test system: RARa:RXR (NR concentration 270 nM, RXRa partner concentration 90 nM)
# assay: PBM binding z-score (relative to random genomic background probes); higher = stronger binding; sequences stand for … in GC…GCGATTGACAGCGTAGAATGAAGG
Label scheme for PBM binding z-score: lower than 1 is criterion not met, 1 and above is criterion met.

Form field: PBM binding z-score at least 1? Entry: "CGAACTCGGTCATTGACAGGACAGTGAATAGTAA"
criterion not met

Is PBM binding z-score for "ACTAGCAGGCCAAGGGTCACTCCAGATTAGTCCG" at or above 1?
criterion met

Reported PBM binding z-score at or above 1? "AGAATGAGGTTACCAAAGATGAGGGAAACGCTTG"
criterion met

Is PBM binding z-score for "CCTCCAAGGTCAAGGTCAGTGAAAGAGACTCGAA" at or above 1?
criterion met

Say whether "AGAATGAGGTTATACGTAGATCAGGGACGAAAGT" shows PBM binding z-score of 1 or more.
criterion met

I'd appreciate it if you could say whether "ATCTCTAGGTAAACAAGTTCAGTGAATGCCGAAC" has PBM binding z-score at least equal to 1.
criterion not met

Check the entry "CCTACTGGGCCAAGGTCATCGATCAGTCAAAGCA" : does PBM binding z-score equal or exceed 1?
criterion met

Quick check, PBM binding z-score >= 1? "AGAATGAGGTTAAGATAAGGGAAACAGAATACAT"
criterion met

Entry "ATATGTAGGTTAAGGGTCATTGAGGTTGGTTCGC" : is its PBM binding z-score no less than 1?
criterion met

Record "AATACAGTGTCATCGTAGGCCAGAGTACGCACAG" ; criterion: PBM binding z-score no lower than 1. Met?
criterion not met

Hi, just wondering whether "TGAATGAGGCTATAAGATCAGGGAACGTTGCAAA" shows PBM binding z-score of 1 or higher.
criterion not met

// inclusive: PBM binding z-score at least 1? input: "CAAACTATGTCACAGAGGTCAAAGTCCGTGCGTA"
criterion met

Tell me whether PBM binding z-score is at least 1 here: "CCTCGGCGGACAGAAGGTCAGAGCTGTCCGCTTT"
criterion met

Does PBM binding z-score meet or surpass 1 for "ACTATGAGTTGACTTAGGGCAACCGATACGACGC" ?
criterion met

Say whether "AGTAGCAGGCCAAGTTTGGGTCACTCAAACAAAG" shows PBM binding z-score of 1 or more.
criterion met

Does the sequence "GGAACGAGGGCAAAGTTGCTAGCATCTGTCGACG" have recorded PBM binding z-score that is 1 or more?
criterion not met

Identify whether the reported PBM binding z-score of the following sequence is 1 or greater: "GCATATAGGTAATACAAGATGAAAGTCCGATTGT"
criterion not met

Hi, just wondering whether "ATATCTAGGTAACCAAGTTCAGTGAATGCCGAAC" shows PBM binding z-score of 1 or higher.
criterion not met

Is PBM binding z-score at least 1? Consider "TCAGACAGGTGACGGTAACTCAGGTACGCAGTCG"
criterion not met

Hello, I need to know if "ACTAGCAGGCCAAGTTTGGGTCATTCAAACAAAG" has measured PBM binding z-score not below 1. Thanks!
criterion met

PBM binding z-score >= 1 for "TCGTGTAGGTTAGTCGGGGCATTCAGCCAACATA" ?
criterion not met

Does the reported PBM binding z-score for "CCTACTGGGGCAAAGGTTACCATACTCAGTACGA" fall at or above the 1 mark?
criterion met

State whether the measured PBM binding z-score reaches 1, counting equality as reaching it, for "TCTTGTAGATCAATGGAGGTTAAGAAAGTGCGCT"
criterion met

# bool: PBM binding z-score of "GCTTACGGGTCAAATGTTATAGCATGAATAGAAT" >= 1
criterion met

Item "CAAACTAGGTCAACAGGTCAAAGTCCGCTTCCCG" with PBM binding z-score of 1 or above?
criterion met

// inclusive: PBM binding z-score at least 1? input: "CGAACGAGGGCATGAGTTGATAGAAAATGCCGAT"
criterion not met

Origin of the recorded values: the supplement of paper PMC6555819
